assay: Brain pharmacokinetic analysis / brain penetration in rats, i.v. bolus; format: in vivo; conditions: male, Sprague-Dawley, rat, in vivo, iv, 10 mg/kg, Brain Terminal phase t1/2
resultType: half-life (h)
The reply should be a number in h, with the unit left off.

Req: Note down half-life recorded for "Cc1csc(CN(C)C(=O)c2cccc(C(=O)N[C@@H](Cc3ccccc3)[C@H](O)CNCc3cncc(C(C)(C)F)c3)c2)n1"
Resp: 34

###

Recorded pKi values for a group of compounds are listed next.
biological target: memapsin 2 (Homo sapiens, UniProt P56817); assay: Inhibition of memapsin 2 beta-secretase activity (fluorogenic substrate FS-2); format: biochemical; details: memapsin 2, pH 4, 37° C., fluorogenic substrate FS-2; read-out: M2Ki
Sequence (P56817 46-501): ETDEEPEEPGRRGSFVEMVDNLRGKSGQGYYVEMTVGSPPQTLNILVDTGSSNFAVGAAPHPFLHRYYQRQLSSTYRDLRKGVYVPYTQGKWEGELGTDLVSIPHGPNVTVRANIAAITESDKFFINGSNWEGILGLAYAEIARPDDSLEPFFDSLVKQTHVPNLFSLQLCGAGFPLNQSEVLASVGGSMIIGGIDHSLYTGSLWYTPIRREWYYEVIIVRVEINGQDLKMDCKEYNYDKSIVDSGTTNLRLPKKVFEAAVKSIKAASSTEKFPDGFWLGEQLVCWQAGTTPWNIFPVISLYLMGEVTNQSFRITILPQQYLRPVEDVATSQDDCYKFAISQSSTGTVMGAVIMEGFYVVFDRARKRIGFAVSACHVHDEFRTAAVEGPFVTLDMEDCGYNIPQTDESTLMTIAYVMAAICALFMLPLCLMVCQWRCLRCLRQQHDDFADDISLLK
pKi: −log10 of the molar value.

Use these answered entries as a reference point.
| smilesCode | system | observedResult |
| --- | --- | --- |
| Cc1csc(CN(C)C(=O)c2cccc(C(=O)N[C@@H](Cc3ccccc3)[C@H](O)CNCc3cncc(C(C)(F)F)c3)c2)n1 | memapsin 2 (Homo sapiens, UniProt P56817) | > 6.52 |
| Cc1csc(CN(C)C(=O)c2cc(C(=O)N[C@@H](Cc3ccccc3)[C@H](O)CNCc3cccc(C(F)(F)F)c3)cc(C(C)C)c2)n1 | memapsin 2 (Homo sapiens, UniProt P56817) | > 6.52 |
| Cc1csc(CN(C)C(=O)c2cccc(C(=O)N[C@@H](Cc3ccccc3)[C@H](O)CNCc3cc(C#N)cc(C(F)(F)F)c3)c2)n1 | memapsin 2 (Homo sapiens, UniProt P56817) | > 6.52 |

Req: Note down pKi recorded for "CC(=O)Nc1cc(CNC[C@@H](O)[C@H](Cc2ccccc2)NC(=O)c2cccc(C(=O)N(C)Cc3nc(C)cs3)c2)cc(C(F)(F)F)c1"
Resp: > 6.52

Req: Note down pKi recorded for "CC(C)c1cncc(CNC[C@@H](O)[C@H](Cc2ccccc2)NC(=O)c2cccc(C(=O)N(C)Cc3nc(CO)cs3)c2)c1"
Resp: > 6.52

Req: Note down pKi recorded for "COc1cccc(CNC[C@@H](O)[C@H](Cc2ccccc2)NC(=O)c2cc(C(=O)N(C)Cc3nc(C)cs3)cc(-c3ccccc3OC)c2)c1"
Resp: > 6.52

###

target: memapsin 2 (Homo sapiens); assay: Inhibition of memapsin 2 beta-secretase activity (fluorogenic substrate FS-2); assay type: biochemical; conditions: memapsin 2, pH 4, 37° C., 20 minutes pre-incubation; read-out: M2Ki
resultType: Ki

Use these answered entries as a reference point.
| smilesCode | Ki |
| --- | --- |
| Cc1csc(CN(C)C(=O)c2cccc(C(=O)N[C@@H](Cc3ccccc3)[C@H](O)CNCc3cc(C(F)(F)F)cc(C(F)(F)F)c3)c2)n1 | < 300 nM |
| COc1ccnc(CNC[C@@H](O)[C@H](Cc2ccccc2)NC(=O)c2cccc(C(=O)N(C)Cc3nc(C)cs3)c2)n1 | > 501 nM |
| COc1cccc(CNC[C@@H](O)[C@H](Cc2ccccc2)NC(=O)c2cc(OC)cc(C(=O)N(CCO)Cc3nc(C)cs3)c2)c1 | < 300 nM |

Req: Note down Ki recorded for "COc1cccc(CNC[C@@H](O)[C@H](Cc2ccccc2)NC(=O)c2cc(OC)cc(C(=O)N[C@H](C)c3ccccc3)c2)c1"
Resp: > 501 nM

Req: Note down Ki recorded for "COc1cccc(CNC[C@@H](O)[C@H](Cc2ccccc2)NC(=O)c2cc(C(=O)O)cc(C(=O)N(C)Cc3nc(C)cs3)c2)c1"
Resp: < 300 nM

Req: Note down Ki recorded for "C[C@@H](NC(=O)c1cc(C(=O)N[C@@H](Cc2ccccc2)[C@H](O)CNCc2cccc(C(C)(C)C)c2)cc(N(C)S(C)(=O)=O)c1)c1ccccc1"
Resp: < 300 nM

Req: Note down Ki recorded for "C[C@@H](NC(=O)c1cc(C(=O)N[C@@H](Cc2ccccc2)[C@H](O)CNCc2cccc(I)c2)cc(N(C)S(C)(=O)=O)c1)c1ccccc1"
Resp: < 300 nM

Req: Note down Ki recorded for "C[C@@H](NC(=O)c1cc(C(=O)N[C@@H](Cc2ccccc2)[C@H](O)CNCc2cccc(C(=O)O)c2)cc(N(C)S(C)(=O)=O)c1)c1ccccc1"
Resp: < 300 nM

Req: Note down Ki recorded for "COc1cccc(CNC[C@@H](O)[C@H](Cc2ccccc2)NC(=O)c2cc(C(N)=O)cc(C(=O)N[C@H](C)c3ccccc3)c2)c1"
Resp: > 501 nM

###

assay: Brain pharmacokinetic analysis / brain penetration in rats, i.v. bolus; assay type: in vivo; details: male, Sprague-Dawley, rat, in vivo, iv, 10 mg/kg
resultType: concentration at 4 h (ng/mL)
The reply should be a number in ng/mL, with the unit left off.

Req: Note down concentration at 4 h recorded for Cc1csc(CN(C)C(=O)c2cccc(C(=O)N[C@@H](Cc3ccccc3)[C@H](O)CNCc3cncc(C(C)(C)F)c3)c2)n1 [test inhibitor]
Resp: 28

###

target: cathepsin D (Homo sapiens, UniProt P07339); experiment: Inhibition of cathepsin D activity (substrate peptide ELDLAVEFWHDR, MALDI-TOF); format: biochemical; details: read-out: CDKi
Sequence (P07339 65-412, species assumed): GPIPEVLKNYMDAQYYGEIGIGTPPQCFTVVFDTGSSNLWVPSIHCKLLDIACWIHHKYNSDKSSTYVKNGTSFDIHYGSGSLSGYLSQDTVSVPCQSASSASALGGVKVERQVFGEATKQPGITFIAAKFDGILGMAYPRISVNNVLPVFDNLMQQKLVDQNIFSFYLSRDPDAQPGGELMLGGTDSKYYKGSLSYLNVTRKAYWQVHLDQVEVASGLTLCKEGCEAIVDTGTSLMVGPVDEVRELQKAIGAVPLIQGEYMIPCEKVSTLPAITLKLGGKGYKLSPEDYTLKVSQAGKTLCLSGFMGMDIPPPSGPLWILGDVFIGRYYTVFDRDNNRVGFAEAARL
pKi: −log10 of the molar value.
resultType: pKi

| compound | system | pKi |
| --- | --- | --- |
| Cc1csc([C@@H](C)N(C)C(=O)c2cccc(C(=O)N[C@@H](Cc3ccccc3)[C@H](O)CNCc3cncc(C(C)C)c3)c2)n1 [Compound 82] | cathepsin D (Homo sapiens, UniProt P07339) | 6.30 to 6.52 |
| C[C@@H](NC(=O)c1cc(C(=O)N[C@@H](Cc2ccccc2)[C@H](O)CNCc2cccc(Cl)c2)cc(N(C)S(C)(=O)=O)c1)c1ccccc1 [Compound 86] | cathepsin D (Homo sapiens, UniProt P07339) | 6.30 to 6.52 |
| COc1cc(C(=O)N[C@@H](Cc2ccccc2)[C@H](O)CNCc2cncc(C(C)C)c2)cc(C(=O)N(C)Cc2nc(C)cs2)c1 [Compound 40] | cathepsin D (Homo sapiens, UniProt P07339) | > 6.52 |
| C=Cc1cc(C(=O)N[C@@H](Cc2ccccc2)[C@H](O)CNCc2cccc(OC)c2)cc(C(=O)N(C)Cc2nc(C)cs2)c1 [Compound 21] | cathepsin D (Homo sapiens, UniProt P07339) | > 6.52 |
| COc1cccc(CNC[C@@H](O)[C@H](Cc2ccccc2)NC(=O)c2cc(OC)cc(C(=O)N(C)Cc3nc(C)cs3)c2)c1 [Compound 3] | cathepsin D (Homo sapiens, UniProt P07339) | > 6.52 |
| Cc1csc(CN(C)C(=O)c2cccc(C(=O)N[C@@H](Cc3ccccc3)[C@H](O)CNCc3ccnc(C(C)C)c3)c2)n1 [Compound 33] | cathepsin D (Homo sapiens, UniProt P07339) | > 6.52 |
| Cc1cc(C(=O)N[C@@H](Cc2ccccc2)[C@H](O)CNCc2cncc(C(C)C)c2)cc(C(=O)N(Cc2nc(C)cs2)C2CC2)c1 [Compound 41] | cathepsin D (Homo sapiens, UniProt P07339) | > 6.52 |
| C[C@@H](NC(=O)c1cc(C(=O)N[C@@H](Cc2ccccc2)[C@H](O)CNCc2cccc(O)c2)cc(N(C)S(C)(=O)=O)c1)c1ccccc1 [Compound 71] | cathepsin D (Homo sapiens, UniProt P07339) | < 6.30 |
| Cc1csc(CN(C)C(=O)c2cccc(C(=O)N[C@@H](Cc3ccccc3)[C@H](O)CNCc3cc(C(C)C)cc(N(C)C)c3)c2)n1 [Compound 90] | cathepsin D (Homo sapiens, UniProt P07339) | > 6.52 |
| C[C@@H](NC(=O)c1cc(C(=O)N[C@@H](Cc2ccccc2)[C@H](O)CNCc2cccc(I)c2)cc(N(C)S(C)(=O)=O)c1)c1ccccc1 [Compound 88] | cathepsin D (Homo sapiens, UniProt P07339) | > 6.52 |

Req: Note down pKi recorded for Cc1cc(C(=O)N[C@@H](Cc2ccccc2)[C@H](O)CNCc2cncc(C(C)C)c2)cc(C(=O)N(C)Cc2nc(C)cs2)c1 [Compound 32]
Resp: > 6.52

Req: Note down pKi recorded for COc1cc(CNC[C@@H](O)[C@H](Cc2ccccc2)NC(=O)c2cccc(C(=O)N(C)Cc3nc(C)cs3)c2)cc(C(=O)O)c1 [Compound 72]
Resp: < 6.30

Req: Note down pKi recorded for C[C@@H](NC(=O)c1cc(C(=O)N[C@@H](Cc2ccccc2)[C@H](O)CNCc2cncc(C(C)(C)F)c2)cc(N(C)S(C)(=O)=O)c1)c1ccccc1 [Compound 89]
Resp: > 6.52

Req: Note down pKi recorded for COc1cc(CNC[C@@H](O)[C@H](Cc2ccccc2)NC(=O)c2cccc(C(=O)N(C)Cc3nc(C)cs3)c2)cc(OC)c1 [Compound 8]
Resp: > 6.52

Req: Note down pKi recorded for COc1cccc(CNC[C@@H](O)[C@H](Cc2ccccc2)NC(=O)c2cc(C(N)=O)cc(C(=O)N[C@H](C)c3ccccc3)c2)c1 [Compound 91]
Resp: < 6.30

Req: Note down pKi recorded for Cc1csc(CN(C(=O)c2cccc(C(=O)N[C@@H](Cc3ccccc3)[C@H](O)CNCc3cccc(C(F)(F)F)c3)c2)C2CC2)n1 [Compound 29]
Resp: > 6.52

Req: Note down pKi recorded for COc1cccc(CNC[C@@H](O)[C@H](Cc2ccccc2)NC(=O)c2cc(C(=O)N(C)Cc3nc(C)cs3)cc(C3=NCCO3)c2)c1 [Compound 46]
Resp: 6.30 to 6.52

Req: Note down pKi recorded for C[C@@H](NC(=O)c1cc(C(=O)N[C@@H](Cc2ccccc2)[C@H](O)CNCc2cncc(C(F)(F)F)c2)cc(N(C)S(C)(=O)=O)c1)c1ccccc1 [Compound 81]
Resp: < 6.30

Req: Note down pKi recorded for COC(=O)c1cc(C(=O)N[C@@H](Cc2ccccc2)[C@H](O)CNCc2cccc(OC)c2)cc(C(=O)N(C)Cc2nc(C)cs2)c1 [Compound 17]
Resp: > 6.52

Taken from patent US20100286145A1.
